Assay: Quantification of propolis polyphenols in human urines after ingesting the composition
Type: in vivo
Conditions: human, in vivo; 12 h after ingestion of 6 gelatin capsules of Example 3; read-out: amount in human urines
reportedMetric: concentration at 12 h
Remember to quote the unit after the number.

// recorded concentration at 12 h for O=c1c(O)c(-c2ccccc2)oc2cc(O)cc(O)c12 [Galangin, galangin] : 291 ng/mL

----------
Assay: Quantification of propolis polyphenols in human urines after ingesting the composition
Type: in vivo
Conditions: human, in vivo; 24 h after ingestion of 6 gelatin capsules of Example 3; read-out: amount in human urines
reportedMetric: concentration at 24 h

// recorded concentration at 24 h for O=c1c(O)c(-c2ccccc2)oc2cc(O)cc(O)c12 : 157 ng/mL
